target: T1, human ActRIIA (human, UniProt P27037 20-135, limits assumed); assay: MSD-SET;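 also: solution equilibrium titration: antibodies held at fixed concentration, equilibrated overnight at 4 °C with serially diluted ActR2A or ActR2B, unbound antibody captured on antigen-coated plate, electrochemiluminescence readout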
T1 construct: antigen in MSD-SET; also called ACVR2A; ActR2A
T1 sequence (P27037 20-135 limits assumed): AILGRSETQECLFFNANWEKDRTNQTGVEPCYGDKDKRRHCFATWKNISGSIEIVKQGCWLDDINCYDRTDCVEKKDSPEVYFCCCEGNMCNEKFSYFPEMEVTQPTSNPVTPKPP
Each entry below carries its recorded pKd.
// scale note: pKd = -log10(conc_M); give the bare number

Worked set:
- binder: "Antibody Hutzelbrot (antibody, V domains shown, full-length IgG) VH: QVQLVQSGAEVKKPGASVKVSCKASGYTFTSSYINWVRQAPGQGLEWMGTINAVSGSTSYAQKFQGRVTMTRDTSISTAYMELSRLRSDDTAVYYCARGGWFDYWGQGTLVTVSS VL: QSALTQPASVSGSPGQSITISCTGTSSDVGSKNYVNWYQQHPGKAPKLMIYGVSKRQSGVSNRFSGSKSGNTASLTISGLQAEDEADYYCGTFAGGDYYGVFGGGTKLTVL"
  pKd: 10.68
- binder: "Antibody Hasaschlegel (antibody, V domains shown, full-length IgG) VH: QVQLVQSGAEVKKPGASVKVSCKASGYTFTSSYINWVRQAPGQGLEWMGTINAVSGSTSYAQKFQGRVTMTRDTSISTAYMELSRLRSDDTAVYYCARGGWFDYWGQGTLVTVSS VL: QSALTQPASVSGSPGQSITISCTGTSSDVGSYDYVNWYQQHPGKAPKLMIHGVSKRESGVSNRFSGSKSGNTASLTISGLQAEDEADYYCGTFAGGSYYGVFGGGTKLTVL"
  pKd: 10.74
- binder: "Antibody Riaba (antibody, V domains shown, full-length IgG) VH: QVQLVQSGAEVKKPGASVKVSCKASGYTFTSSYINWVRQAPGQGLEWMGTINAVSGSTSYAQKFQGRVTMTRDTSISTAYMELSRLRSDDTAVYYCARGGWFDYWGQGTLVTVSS VL: QSALTQPASVSGSPGQSITISCTGTSSDVGSYNYVNWYQQHPGKAPKLMIYGVSKRDSGVSNRFSGSKSGNTASLTISGLQAEDEADYYCGTFAGGKYYGVFGGGTKLTVL"
  pKd: 10.85
- binder: "Antibody Wurschdsalat (antibody, V domains shown, full-length IgG) VH: QVQLVQSGAEVKKPGASVKVSCKASGYTFTSSYINWVRQAPGQGLEWMGTINAVSGSTSYAQKFQGRVTMTRDESISTAYMELSRLRSDDTAVYYCARGGWFDYWGQGTLVTVSS VL: QSALTQPASVSGSPGQSITISCTGTSSDVGSYNYVNWYQQHPGKAPKLMIYGVSKRESGVSNRFSGSKSGNTASLTISGLQAEDEADYYCGTFAGGKYYGVFGGGTKLTVL"
  pKd: 11.30

For this binder ( Antibody Rippla (antibody, V domains shown, full-length IgG; also called Ripp1a) VH: QVQLVQSGAEVRKPGASVKVSCKASGYTFTSSYINWVRQAPGQGLEWMGTINPVSGSTSYAQKFQGRVTMTRDTSISTAYMELSRLRSDDTAVYYCARGGWFDYWGQGTLVTVSS VL: QSALTQPASVSGSPGQSITISCTGTSSDVGSYNRVNWYQQHPGKAPKLMIYGVSKRESGVSNRFSGSKSGNTASLTISGLQAEDEADYYCGTFAGGRYYGVFGGGTKLTVL ), measured pKd is 10.39
